Each record is given t if its reported intrinsic clearance, human liver microsomes is strictly below 40 mL/min/kg. Records at or above 40 mL/min/kg are given f.

MOLECULE | ANSWER_LABEL
CCN(Cc1ccccc1)C(=O)c1cccnc1N | t
CC(=O)N1CCC(c2ccc(C(=O)O)cn2)CC1 | t
O=C(CN1CCCC1=O)NCC1(CO)CCCC1 | t
CC(C)=CCOc1cccc(C(=O)NN2CCOCC2)c1 | t
O=C(Nc1nc2c(s1)COc1ccccc1-2)c1cnc(Cl)c(Cl)c1 | t
CS(=O)(=O)N1CC(c2n[nH]c3ncccc23)C1 | t
Cc1noc(C)c1-c1cc(-c2ccccc2Cl)nc(C2CC2)n1 | t
CC(=O)c1c(C)c2cnc(Nc3ccc(N4CCNCC4)cn3)nc2n(C2CCCC2)c1=O | t
Cc1noc(CC2CCN(Cc3cccnc3)CC2)n1 | t
CCCn1ccnc1CNc1nc2c(s1)c(C)nn2C | t
COc1ccccc1C(=O)Nc1ccc2cc[nH]c2c1 | f
COc1cc2nc(/C=C/c3cocn3)sc2cc1OC | t
Cc1nccc(-c2cn(Cc3ccccc3)c3cnccc23)n1 | f
c1ccc(OCCN2CCN(c3ncccn3)CC2)cc1 | f
CCCNC(=O)C1(Cc2ccccn2)CCOCC1 | t
Nc1ncc(C(=O)NC2CN(C(=O)C3CC3)C2)c2ccc(-c3cccc(F)c3)nc12 | t
CN(CCC#N)Cc1cc(C#N)ccc1F | t
COc1c(C)cnc(CN(C)S(N)(=O)=O)c1C | t
Cc1ccccc1C(=O)N1CCC(O)(Cn2ccnc2C)CC1 | t
CN(CCc1ccncc1)c1ncccc1C#N | f
CCc1noc(-c2ccc(CCN)cc2)n1 | f
CCC(=O)NCc1ccnc(N(C)C)c1 | t
N#CC1(C(=O)NCC2(C3CC3)CC2)CCCCC1 | t
N#Cc1ccc(C(=O)N2CCCO2)nc1 | t
Cn1cc(NC(=O)c2ccc(OCC3CCOCC3)nc2)cn1 | t
CCc1nnc(Sc2nc3cc(C)nn3c3ccccc23)[nH]1 | t
COc1cc2c(cc1NC(C)=O)oc1ccccc12 | f
Cc1nn(C)c2ncc(CNc3ccon3)cc12 | t
CCc1csc(NC(=O)c2ccc3c(c2)nc(C)n3C)n1 | t
CC1Cc2ccccc2N1C(=O)CN1CCC(n2c(=O)[nH]c3ccccc32)CC1 (stereo not drawn) | f
N#Cc1ccccc1-c1ccc(-c2nccn2-c2cccnc2)o1 | f
CCc1ccc(S(=O)(=O)NCc2ccnc(N3CCCC3)n2)cc1 | f
CCn1c(CN2CCCCCC2)nc2ccccc2c1=O | t
Cc1ncsc1C(=O)N1CCCCC1c1nc(N(C)C)ncc1-c1cccc(Cl)c1 (stereo not drawn) | f
Cc1nccc(NC(=O)c2ccc(Cl)nc2Cl)n1 | t
NCc1cccc(C(=O)N2CCCC2)c1 | t
Cc1nc(NCc2ccc(F)c(Cl)c2)n(C)n1 | t
CCc1nnc(Nc2cccc(C3CCCN(CC(=O)N4CCCC4)C3)n2)s1 (stereo not drawn) | f
CC(=O)N[C@H]1CCN(C(=O)N[C@H](C)C(c2ccccc2)c2ccccc2)C1 | f
CC(=O)N1CCN(C(=O)CCc2ccc(-c3ccccc3)[nH]2)CC1 | t
CCC(=O)Nc1ccc(F)c(NC(=O)N2CC=C(C)CC2)c1 | t
CC(=O)Nc1ccc2nc(C)cc(O)c2c1 | t

====

ENDPOINT_LABEL: intrinsic clearance, rat liver microsomes

MOLECULE | TEST_RESULT
O=c1oc2cccnc2n1Cc1ncc(-c2ccc(F)cc2)o1 | ≤ 10.7 mL/min/kg
COc1cccc(C)c1C(=O)N(C)CCCn1cccn1 | 500 mL/min/kg
N#Cc1ccc(Cn2cncn2)c(F)c1 | ≤ 10.7 mL/min/kg

====

EXPERIMENTAL_SETUP: pH 6.8
# reported aqueous solubility; entries follow
ENDPOINT_LABEL: aqueous solubility (µg/mL)

COMPOUND | ENDPOINT_LABEL | OUTPUT_UNIT | TEST_RESULT
CCc1nc(CC)n(Cc2nc(C)cs2)n1 | aqueous solubility | µg/mL | 35.9
O=c1[nH]c2ccccc2n1C1CCN(CCOc2ccccc2)CC1 | aqueous solubility | µg/mL | 47.4
Cc1sc2nc(CN3CCCC3)nc(N)c2c1C | aqueous solubility | µg/mL | 44.6
CCc1ncnc(N(C)Cc2ccc(N)nc2)c1F | aqueous solubility | µg/mL | 34.9
c1ccc(-c2noc(NC3CC3)n2)cc1 | aqueous solubility | µg/mL | 28.3
O=C(NCC1(c2ccccc2)CC1)c1cccnc1 | aqueous solubility | µg/mL | 41.2
Cc1cc(C(=O)NCCc2ccccn2)c(C)s1 | aqueous solubility | µg/mL | 41.1
Cc1ccc(-n2nc(C(C)(C)C)cc2NC(=O)Nc2ccc(OCCN3CCOCC3)c3ccccc23)cc1 | aqueous solubility | µg/mL | 16.6
C=C(C)COc1ccc(C(=O)NCCc2cn3ccccc3n2)cc1 | aqueous solubility | µg/mL | 27.4
Fc1ccc(F)c(CN2CCN(Cc3ccc4c(c3)OCO4)CC2)c1 | aqueous solubility | µg/mL | 26.9
COc1nn(C)cc1C(=O)Nc1cccc2cnccc12 | aqueous solubility | µg/mL | 40.5
CC(=O)N1CCC(Cn2ccnc2-c2cc3ccccc3s2)CC1 | aqueous solubility | µg/mL | 35.2
COc1cccc(C(=O)C[n+]2cc(-c3ccc(F)cc3)n(C)c2N)c1 | aqueous solubility | µg/mL | 74.1
N#Cc1ccccc1Cn1nnc(-c2ccccc2)n1 | aqueous solubility | µg/mL | 11.4
COc1ccc(-c2csc(CC(N)=O)n2)cc1Br | aqueous solubility | µg/mL | 37.5
CCN(CC)CCCNc1c2c(nc3ccccc13)CCC2 | aqueous solubility | µg/mL | 25.4
CCNC(=O)c1ccnc(-c2ccc(F)c(C)c2)c1 | aqueous solubility | µg/mL | 28.4
O=C(CN1CCOC(c2ccc(F)cc2)C1)Nc1ccccc1OC(F)F (stereo not drawn) | aqueous solubility | µg/mL | 23.1
COc1cccc(-c2nc(C(=O)O)cs2)c1OC | aqueous solubility | µg/mL | 37.7
CC(C)c1nc2c(n1C)CCN(c1ncnc3ccsc13)C2 | aqueous solubility | µg/mL | 54.4
CCN(c1cc(-c2ccc(CN3CCOCC3)cc2)cc(C(=O)NCc2c(C)cc(C)nc2O)c1C)C1CCOCC1 | aqueous solubility | µg/mL | 49.2
Cc1ccc(C(=O)N2CCN(C(=O)NCC(=O)N3CCCC3)CC2)cc1F | aqueous solubility | µg/mL | 75.6
Cc1cccnc1NC(=O)CCn1cnc2ccccc21 | aqueous solubility | µg/mL | 48.1
Cn1c(=O)n(Cc2cccc(OC(F)F)c2)c2cnccc21 | aqueous solubility | µg/mL | 49.1
CON(C)C(=O)CCc1c(C)nn(C)c1C | aqueous solubility | µg/mL | 34.2
Cc1noc(C2CCN(CC(N)=O)CC2)n1 | aqueous solubility | µg/mL | 30.8
Cc1cc(C(=O)Nc2cccc3ncccc23)on1 | aqueous solubility | µg/mL | 45.4
O=C1CN(c2ccc(Nc3nccc(C(F)(F)F)n3)cn2)CCN1 | aqueous solubility | µg/mL | 51.3

====

Each entry belongs to exactly one class, chosen by where its intrinsic clearance, rat liver microsomes falls: low range: < 200 mL/min/kg; mid range: ≥ 200 mL/min/kg and < 700 mL/min/kg; high range: ≥ 700 mL/min/kg

COMPOUND | ANSWER_LABEL
COc1ccc(NC(=O)C(C)N2CCCN(c3ccc(C(F)(F)F)cn3)CC2)cc1 (stereo unspecified) | high range
CC1(C)CC(CC(=O)NCCn2ccnn2)CC(C)(C)N1 | low range
Cc1ccc(C(=O)N2CCN(C(=O)NCC(=O)N3CCCC3)CC2)cc1F | low range
O=C(c1cccc(Cl)c1)N1CCN(C(=O)c2ccc3ccccc3c2O)CC1 | low range
CCN1CCc2nc(NC(=O)Cc3ccc(Cl)cc3)sc2C1 | low range
Cc1nccn1CCNC(=O)C(C)(C)C | low range
CN1CCN(C(=O)C2(NC(=O)c3ccc(C(F)(F)F)cc3)CCCC2)CC1 | low range
Cc1ccc(C(=O)N2CCC(Cc3ccccc3-c3ccccc3)(C(=O)N(C)C)CC2)s1 | high range
CCc1[nH]nc(NC2CCC(C(=O)OC)CC2)c1C (stereo unspecified) | mid range
COc1cc(CCNC2CCC3(CC2)OCCO3)ccc1F | high range
COc1cccc(F)c1NC(=O)N1CCC(N2CC=CC2)CC1 | mid range
CCCCCNC(=N)N/N=C/c1c[nH]c2ccc(OC)cc12 | low range
CC(=O)NC1CCN(Cc2cccc(-c3cccnc3)c2)CC1 | low range
O=C(Cn1ncc2ccccc21)Nc1ccc2c(c1)CCO2 | mid range
Cc1cccc2cnc(C3CCN(C(=O)CCc4ccno4)CC3)cc12 | high range

====

COMPOUND | fraction unbound, rat plasma
Cc1c(F)cccc1NC(=O)CN1[C@H](Cc2ccccc2)C[C@]2(C)NC(=O)CCC[C@H]12 | 0.0842
COc1nn(C)cc1C(=O)Nc1cccc2cnccc12 | 0.389
Cc1cc(C)c2c(N)c(C(=O)NCc3ccc(Cl)cc3)sc2n1 | 0.00652
CC#CC(=O)N[C@H]1CCCN(c2c(F)cc(C(N)=O)c3[nH]c(C)c(C)c23)C1 | 0.00229
CNc1cc(Nc2cccn(-c3ccccn3)c2=O)nn2c(C(=O)N[C@@H]3C[C@@H]3F)cnc12 | 0.033
Cc1cccc(-c2nc(C34CCC(C(N)=O)(CC3)CC4)[nH]c2-c2ccc3c(c2)OCO3)n1 | 0.0162
CCCc1nc2nc(C)c(NS(=O)(=O)c3ccc(C4CCCCC4)cc3)c(O)n2n1 | 0.00729
N#Cc1ccc2[nH]c(O)c(-c3ccc(CN4CCOCC4)cn3)c2c1 | 0.118
CN(c1ncc(F)cn1)[C@H]1CCCNC1 | 1
CCN1CCN(S(=O)(=O)Cc2ccc(Cl)c(Cl)c2)CC1 | 0.118
Cc1nnc(CN(C)CC(C)Oc2ccc(Cl)c(Cl)c2)n1C (stereo not given) | 0.13
CCCc1cc(N2CCc3c(nc(C4CC4)n3C)C2)n2ncnc2n1 | 0.244
Fc1ccccc1-c1c[nH]nc1C1CCCN1Cc1ccc2ncccc2c1 (stereo not given) | 0.0289
CC(=O)Nc1ccc(C(=O)N2CCCCC2c2nc(N)ncc2-c2cccc(Cl)c2)cc1 (stereo not given) | 0.0384
CC(=O)N1CCN(c2nc(C(F)(F)F)nc3sc(C)c(C)c23)CC1 | 0.0421
